Test system: SARS-CoV-2
Assay: Antiviral activity against SARS-CoV-2 GX_P2V infected in African green monkey Vero E6 cells assessed as reduction in viral yield pretreated with cells for 2 hrs followed by viral infection and measured after 72 hrs by qRT-PCR analysis
Format: functional, organism-based
Settings: Severe acute respiratory syndrome coronavirus 2, GX_P2V, Vero C1008
quantity-kind: pEC50
One number for each entry, as −log10 of the molar value.

Q: Recorded pEC50 for C=C1C(=O)O[C@@]23C1CC[C@@H](C)[C@@H]2CC[C@@]1(C)O[C@@H]31 (stereo partly specified) with SARS-CoV-2, please?
A: 5.05

The values you see were collected from ChEMBL document CHEMBL5370565.
